Test system: SN12C renal
Test: NCI tumour cell line growth inhibition, 48 h; in the data active = GI50 below about 0.43 µM; inactive = the rest
Field 'call' accepts active, inactive

*Q* Please indicate how the test categorized O=S(=O)(CCNCc1ccc(-c2ccc3ncnc(Nc4ccc(OCc5cccc(F)c5)c(Cl)c4)c3c2)o1)c1ccccc1 .
*A* inactive

*Q* Please indicate how the test categorized CCCC1=C(C(=O)OCC)C(c2ccccc2OC)C(C#N)=C(N)O1 (configuration not stated) .
*A* inactive

*Q* Please indicate how the test categorized O=C1CCC(N2Cc3c(C#CCCCNC(=O)c4cc5c(o4)C(=O)c4ccccc4C5=O)cccc3C2=O)C(=O)N1 (configuration not stated) .
*A* inactive

*Q* Please indicate how the test categorized Cc1cc2cc3cc(C)c(N)cc3[n+](C)c2cc1N .
*A* active

*Q* Please indicate how the test categorized COc1cc(/C=C2\C(=O)N(c3ccccc3)c3ccccc32)cc(OC)c1OC .
*A* inactive

*Q* Please indicate how the test categorized Nc1ccc(-c2nc3ccccc3o2)cc1S .
*A* inactive

*Q* Please indicate how the test categorized COc1ccc(CCN2CCC(Nc3nc4ccccc4n3Cc3ccc(F)cc3)CC2)cc1 .
*A* inactive

*Q* Please indicate how the test categorized C/C(=C\CCc1ccsc1)CC/C=C(\C)CCCN1CCC(CO)CC1 .
*A* inactive

*Q* Please indicate how the test categorized O=C(NCCNc1nccc(-c2c(-c3ccc(F)cc3)nc3sccn23)n1)c1ccccc1 .
*A* inactive

*Q* Please indicate how the test categorized CC1(C)N=C(N)N=C(N)N1c1cccc(CCCCOc2ccccc2)c1 .
*A* active

*Q* Please indicate how the test categorized COc1ccc(OC)c(/C=C2\COc3ccc(O)c(O)c3C2=O)c1 .
*A* inactive

*Q* Please indicate how the test categorized NC1=CC(=O)c2nc3ccccc3c3ccnc1c23 .
*A* inactive

*Q* Please indicate how the test categorized S=C(c1ccc2c(c1)OCO2)N1CCN(c2cccc(Cl)c2)CC1 .
*A* inactive

*Q* Please indicate how the test categorized COc1ccc(-c2nc(N3CCOCC3)c3sc(CN(C)c4ncc(C(=O)NO)cn4)cc3n2)cn1 .
*A* active

*Q* Please indicate how the test categorized CC1OC(n2c3ccccc3c3c4c(c5c6ccccc6[nH]c5c32)C(=O)N(CCN2CCOCC2)C4=O)CC(O)C1O (configuration not stated) .
*A* inactive

*Q* Please indicate how the test categorized COc1ccc2cc(Cn3cc[n+](Cc4ccc5ccccc5c4)c3)ccc2c1 .
*A* inactive

*Q* Please indicate how the test categorized COc1ccc2c(c1)/C(=C\c1c(Cl)n(C)c3ccccc13)C(=O)N2 .
*A* inactive
